assay: CEETOX_H295R_PROG: CeeTox H295R High-throughput Steroidogenesis Assay for Progesterone (PROG) (AID 2283442); conditions: actives raise or lower the signal
The source made the active and inactive calls. Rule for the calls: active = hit-call score of the fitted dose curve at least 0.9, where 1 is the maximum; inactive = score below 0.9.
// one of T (active), F (inactive), no free text

Some solved entries appear below for comparison.
CC(C)(C)c1ccc(O)c(O)c1	T
CC(C)CCOCCC(C)C	F
COc1cccc(O)c1	F
c1cc[nH]c1	F
CC(C)(c1ccc(Oc2ccc(N)cc2)cc1)c1ccc(Oc2ccc(N)cc2)cc1	T
Cc1cccc2c1ccc1ccccc12	F
CCCCCc1ccc(O)cc1	F
COc1cc([N+](=O)[O-])ccc1N	T

// next entry
Asked: # lookup: test call for Clc1ccc(Nc2nnc(Cc3ccncc3)c3ccccc23)cc1
Given back: F
